Hey, just so you know, these numbers are from the supplement of paper PMC8671470.

In this section we review reported cell viability values for a set of compounds.
- Tested on: myeloid leukemia patient primary cells Pat.14
- assay.notes: cell viability (% survival relative to DMSO control); higher = less cytotoxic
- condition.label: 10 nM; 72 h
# number only, unit % dropped from output

In [3]: df
Out[3]:
                              sample_smiles         measure  observed_value
0  C=C(C)[C@H]1Cc2c(ccc3c2O[C@@H]2COc4cc(OC)c(OC)cc4[C@@H]2C3=O)O1  cell viability              71
1  O=C1c2cc([N+](=O)[O-])ccc2-n2c1nc1ccccc1c2=O  cell viability              95
2  CCC(=O)N1CCN(c2ccc(-n3c(=O)ccc4cnc5ccc(-c6cnc7ccccc7c6)cc5c43)cc2C(F)(F)F)CC1  cell viability            82.1

Proceed to the following item.
Qu. Given the entry `Nc1nc(Cl)nc2c1ncn2[C@H]1C[C@H](O)[C@@H](CO)O1` , report its measured cell viability.
Ans. 75.3
